B1: SPATS1 (parent)
chain: YPEQSKGFHKAGSMLPPVNFSIVP

- Variants of: B1
- Test Protocol: protein stability index of a GFP-peptide fusion (GPS, HEK-293T) (PSI 1-6); higher = more stable;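 further: lentivirally expressed fusions sorted by FACS into six bins by GFP to DsRed ratio, PSI derived from sequencing read proportions per bin multiplied by bin number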
- Run Conditions: c terminus: a fixed tail appended
Label class 1 when protein stability index is at or above 2; otherwise label class 0.

Reported protein stability index reaches at least 2 for V23W ? class 0

Reported protein stability index reaches at least 2 for G12M ? class 0

Reported protein stability index reaches at least 2 for E3F ? class 1

Reported protein stability index reaches at least 2 for N19G ? class 0
